Would you mind telling me the reported Cmax of each entry?
Experiment: in vivo
Set-up: species or system C57/BL6 mice
Settings: C57/BL6, in vivo; mouse, oral 20 mg/kg, whole blood
Record the value in µM, omitting the unit from your answer.

Given C[S+]([O-])c1cccc(-c2ccc3nc(N)n(-c4ccc(C(F)(F)F)cc4)c(=O)c3c2)c1 (centres unmarked) , state its recorded Cmax. 3.54

Given `CS(=O)(=O)c1cccc(-c2ccc3nc(N)n(-c4ccc(C(F)(F)F)cc4)c(=O)c3c2)c1` , state its recorded Cmax. 5.98

* * *

Assay: physchem
Assay type: physicochemical
Details: kinetic solubility, pH 7.4, HPLC method
Would you mind telling me the reported solubility of each entry?
Record the value in µM, omitting the unit from your answer.

Given C[S+]([O-])c1cccc(-c2ccc3nc(N)n(-c4ccc(C#N)cc4)c(=O)c3c2)c1 (stereo not shown) , state its recorded solubility. 16

Given COc1ccc(-n2c(N)nc3ccc(-c4cccc([S+](C)[O-])c4)cc3c2=O)cc1 (stereo not shown) , state its recorded solubility. 128

Given `CNC(=O)c1cncc(-c2ccc3nc(N)n(-c4ccc(C(F)(F)F)cc4)c(=O)c3c2)c1` , state its recorded solubility. 39

Given C[S+]([O-])c1cccc(-c2ccc3nc(N)n(C4CCC(F)(F)CC4)c(=O)c3c2)c1 (stereo not shown) , state its recorded solubility. 125

Given `Cc1ccc(S(C)(=O)=O)cc1-c1ccc2nc(N)n(-c3ccc(C(F)(F)F)cc3)c(=O)c2c1` , state its recorded solubility. 53

Given `Nc1nc2ccc(-c3cccc(C(=O)NCCO)c3)cc2c(=O)n1-c1ccc(C(F)(F)F)cc1` , state its recorded solubility. 193

Given C[S+]([O-])c1cccc(-c2ccc3nc(N)n(-c4ccc(F)cc4)c(=O)c3c2)c1 (stereo not shown) , state its recorded solubility. 38

Given Cc1ccc(-n2c(N)nc3ccc(-c4cccc([S+](C)[O-])c4)cc3c2=O)cc1 (stereo not shown) , state its recorded solubility. 172

Given C[S+]([O-])c1cccc(-c2ccc3nc(N)n(-c4cccc(C(F)(F)F)c4)c(=O)c3c2)c1 (stereo not shown) , state its recorded solubility. 164

Given C[S+]([O-])c1cccc(-c2ccc3nc(N)n(Cc4ccc(C(F)(F)F)cc4)c(=O)c3c2)c1 (stereo not shown) , state its recorded solubility. 104

* * *

Type: in vitro ADME
Settings: human liver microsomes
property name: Metabolic Stability H (% Rem.)

Given C[S+]([O-])c1cccc(-c2ccc3nc(N)n(-c4ccc(C(F)(F)F)cc4)c(=O)c3c2)c1 (stereo not shown) , state its recorded Metabolic Stability H (% Rem.). 88/-/- % Rem.

Given `NC(=O)c1cccc(-c2ccc3nc(N)n(-c4ccc(C(F)(F)F)cc4)c(=O)c3c2)c1` , state its recorded Metabolic Stability H (% Rem.). 97/-/- % Rem.

Given `Nc1nc2ccc(-c3cccc(C(=O)N4CCOCC4)c3)cc2c(=O)n1-c1ccc(C(F)(F)F)cc1` , state its recorded Metabolic Stability H (% Rem.). 71 % Rem.

Given `Nc1nc2ccc(-c3cccnc3)cc2c(=O)n1-c1ccc(C(F)(F)F)cc1` , state its recorded Metabolic Stability H (% Rem.). 68/-/- % Rem.

* * *

Would you mind telling me the reported solubility of each entry?
Assay: physchem
Assay type: physicochemical
Conditions: 25 °C, pH 7.4, aqueous buffer, kinetic solubility, pH 7.4, HPLC method

Given `Cc1ccc(S(C)(=O)=O)cc1-c1ccc2nc(N)n(-c3ccc(C(F)(F)F)cc3)c(=O)c2c1` , state its recorded solubility. 53.3 µM

Given `Nc1nc2ccc(-c3cccnc3)cc2c(=O)n1-c1ccc(C(F)(F)F)cc1` , state its recorded solubility. 20 µM

Given CNc1nc2ccc(-c3cccc([S+](C)[O-])c3)cc2c(=O)n1-c1ccc(C(F)(F)F)cc1 (stereo not shown) , state its recorded solubility. 64 µM

Given `Nc1nc2ccc(-c3cccc(C(=O)O)c3)cc2c(=O)n1-c1ccc(C(F)(F)F)cc1` , state its recorded solubility. 29 µM

Given `CN(C)c1nc2ccc(-c3cccc(S(C)(=O)=O)c3)cc2c(=O)n1-c1ccc(C(F)(F)F)cc1` , state its recorded solubility. 21.6 µM

Given `Nc1nc2ccc(-c3cccc(C(F)(F)F)c3)cc2c(=O)n1-c1ccc(C(F)(F)F)cc1` , state its recorded solubility. 40 µM

Given `NC(=O)c1cccc(-c2ccc3c(=O)n(-c4ccc(C(F)(F)F)cc4)c(N)nc3c2)c1` , state its recorded solubility. 58 µM

Given `CS(=O)(=O)c1cccc(-c2ccc3c(=O)n(-c4ccc(C(F)(F)F)cc4)c(N)nc3c2)c1` , state its recorded solubility. < 5 µM

Given COc1ccc(-n2c(N)nc3ccc(-c4cccc([S+](C)[O-])c4)cc3c2=O)cc1 (stereo not shown) , state its recorded solubility. > 100 µM

Given `Nc1nc2ccc(-c3cccc(C(=O)N4CCOCC4)c3)cc2c(=O)n1-c1ccc(C(F)(F)F)cc1` , state its recorded solubility. 56 µM

Given C[S+]([O-])c1cccc(-c2ccc3nc(N)n(-c4ccc(C(F)(F)F)cc4)c(=O)c3c2)c1 (stereo not shown) , state its recorded solubility. 80 µM

Given C[S+]([O-])c1cccc(-c2ccc3nc(N)n(-c4ccc(F)cc4)c(=O)c3c2)c1 (stereo not shown) , state its recorded solubility. 37.8 µM

Given `Nc1nc2ccc(-c3cncnc3)cc2c(=O)n1-c1ccc(C(F)(F)F)cc1` , state its recorded solubility. 40 µM

Given `Cc1cncc(-c2ccc3nc(N)n(-c4ccc(C(F)(F)F)cc4)c(=O)c3c2)c1` , state its recorded solubility. < 5 µM

Given `CS(=O)(=O)c1cccc(-c2ccc3nc(N)n(-c4ccc(C(F)(F)F)cc4)c(=O)c3c2)c1` , state its recorded solubility. < 5 µM

Given `CNC(=O)c1cncc(-c2ccc3nc(N)n(-c4ccc(C(F)(F)F)cc4)c(=O)c3c2)c1` , state its recorded solubility. 40 µM

Given C[S+]([O-])c1cccc(-c2ccc3nc(N)n(-c4ccc(C#N)cc4)c(=O)c3c2)c1 (stereo not shown) , state its recorded solubility. 16.3 µM

Given C[S+]([O-])c1cccc(-c2ccc3c(=O)n(-c4ccc(C(F)(F)F)cc4)c(N)nc3c2)c1 (stereo not shown) , state its recorded solubility. < 5 µM

Given `CS(=O)(=O)c1cccc(-c2ccc3ncn(-c4ccc(C(F)(F)F)cc4)c(=O)c3c2)c1` , state its recorded solubility. < 5 µM

Given Cc1ccc(-n2c(N)nc3ccc(-c4cccc([S+](C)[O-])c4)cc3c2=O)cc1 (stereo not shown) , state its recorded solubility. > 100 µM

Given `CNc1nc2ccc(-c3cccc(S(C)(=O)=O)c3)cc2c(=O)n1-c1ccc(C(F)(F)F)cc1` , state its recorded solubility. < 5 µM

Given `Nc1nc2cc(-c3cccc(C(F)(F)F)c3)ccc2c(=O)n1-c1ccc(C(F)(F)F)cc1` , state its recorded solubility. < 5 µM

Given C[S+]([O-])c1cccc(-c2ccc3nc(N)n(Cc4ccc(C(F)(F)F)cc4)c(=O)c3c2)c1 (stereo not shown) , state its recorded solubility. > 100 µM

Given CN(C)c1nc2ccc(-c3cccc([S+](C)[O-])c3)cc2c(=O)n1-c1ccc(C(F)(F)F)cc1 (stereo not shown) , state its recorded solubility. < 5 µM

Given `CN1CCN(C(=O)c2cccc(-c3ccc4nc(N)n(-c5ccc(C(F)(F)F)cc5)c(=O)c4c3)c2)CC1` , state its recorded solubility. 51 µM

Given `CN(C)CCNC(=O)c1cccc(-c2ccc3nc(N)n(-c4ccc(C(F)(F)F)cc4)c(=O)c3c2)c1` , state its recorded solubility. 168 µM

Given C[S+]([O-])c1cccc(-c2ccc3nc(N)n(-c4cccc(C(F)(F)F)c4)c(=O)c3c2)c1 (stereo not shown) , state its recorded solubility. > 100 µM

Given `Nc1nc2ccc(-c3cccc(Cl)c3)cc2c(=O)n1-c1ccc(C(F)(F)F)cc1` , state its recorded solubility. < 5 µM

Given `Nc1nc2ccc(-c3cccc(C(=O)NCCN4CCOCC4)c3)cc2c(=O)n1-c1ccc(C(F)(F)F)cc1` , state its recorded solubility. < 5 µM

Given `NC(=O)c1cccc(-c2ccc3nc(N)n(-c4ccc(C(F)(F)F)cc4)c(=O)c3c2)c1` , state its recorded solubility. < 5 µM

Given `Nc1nc2ccc(-c3cccc(C(=O)NCCO)c3)cc2c(=O)n1-c1ccc(C(F)(F)F)cc1` , state its recorded solubility. 192 µM
